Recorded solubility (mole fraction), one value per entry.
experimental.context: in ethyl acetate, 308.15 K
# answer = number (no unit)

>>> result_value("N#Cc1cccnc1")
0.63

Return value of solubility (mole fraction) for input `N#Cc1ccncc1` , no commentary. 0.343

----------
Recorded solubility (mole fraction), one value per entry.
experimental.context: in n-propanol, 308.15 K

>>> result_value("N#Cc1ccncc1")
0.19

Moving on to another molecule below.
Return value of solubility (mole fraction) for input `N#Cc1cccnc1` , no commentary. 0.5

----------
experimental.context: in isobutanol, 308.15 K
measure.name: solubility (mole fraction)
# answer = number (no unit)

>>> result_value("N#Cc1ccncc1")
0.172

Moving on to another molecule below.
Return value of solubility (mole fraction) for input `N#Cc1cccnc1` , no commentary. 0.435

----------
experimental.context: in methanol, 298.15 K
measure.name: solubility (mole fraction)
# answer = number (no unit)

Return value of solubility (mole fraction) for input `N#Cc1ccncc1` , no commentary. 0.0954

Return value of solubility (mole fraction) for input `N#Cc1cccnc1` , no commentary. 0.404

----------
experimental.context: in methanol, 278.15 K
measure.name: solubility (mole fraction)
# answer = number (no unit)

>>> result_value("N#Cc1cccnc1")
0.153

Moving on to another molecule below.
Return value of solubility (mole fraction) for input `N#Cc1ccncc1` , no commentary. 0.0361

----------
Recorded solubility (mole fraction), one value per entry.
experimental.context: in acetone, 308.15 K

>>> result_value("N#Cc1ccncc1")
0.356

Moving on to another compound below.
Return value of solubility (mole fraction) for input `N#Cc1cccnc1` , no commentary. 0.664

----------
experimental.context: in n-butanol, 273.15 K
measure.name: solubility (mole fraction)
# answer = number (no unit)

>>> result_value("N#Cc1ccncc1")
0.0149

Moving on to another compound below.
Return value of solubility (mole fraction) for input `N#Cc1cccnc1` , no commentary. 0.0393

----------
Recorded solubility (mole fraction), one value per entry.
experimental.context: in methanol, 288.15 K
# answer = number (no unit)

>>> result_value("N#Cc1ccncc1")
0.062

Moving on to another compound below.
Return value of solubility (mole fraction) for input `N#Cc1cccnc1` , no commentary. 0.267

----------
experimental.context: in tetrachloromethane, 273.15 K
measure.name: solubility (mole fraction)
# answer = number (no unit)

>>> result_value("N#Cc1ccncc1")
0.0194

Return value of solubility (mole fraction) for input `N#Cc1cccnc1` , no commentary. 0.0152

----------
experimental.context: in n-propanol, 318.15 K
Recorded solubility (mole fraction), one value per entry.

>>> result_value("N#Cc1cccnc1")
0.643

Moving on to another molecule below.
Return value of solubility (mole fraction) for input `N#Cc1ccncc1` , no commentary. 0.298

----------
Recorded solubility (mole fraction), one value per entry.
experimental.context: in acetone, 288.15 K
# answer = number (no unit)

Return value of solubility (mole fraction) for input `N#Cc1cccnc1` , no commentary. 0.438

Return value of solubility (mole fraction) for input `N#Cc1ccncc1` , no commentary. 0.213

----------
experimental.context: in n-butanol, 288.15 K
measure.name: solubility (mole fraction)
# answer = number (no unit)

>>> result_value("N#Cc1ccncc1")
0.0471

Return value of solubility (mole fraction) for input `N#Cc1cccnc1` , no commentary. 0.164
